Target: Cholinesterase (Equus caballus, UniProt P81908)
Sequence (P81908 whole entry): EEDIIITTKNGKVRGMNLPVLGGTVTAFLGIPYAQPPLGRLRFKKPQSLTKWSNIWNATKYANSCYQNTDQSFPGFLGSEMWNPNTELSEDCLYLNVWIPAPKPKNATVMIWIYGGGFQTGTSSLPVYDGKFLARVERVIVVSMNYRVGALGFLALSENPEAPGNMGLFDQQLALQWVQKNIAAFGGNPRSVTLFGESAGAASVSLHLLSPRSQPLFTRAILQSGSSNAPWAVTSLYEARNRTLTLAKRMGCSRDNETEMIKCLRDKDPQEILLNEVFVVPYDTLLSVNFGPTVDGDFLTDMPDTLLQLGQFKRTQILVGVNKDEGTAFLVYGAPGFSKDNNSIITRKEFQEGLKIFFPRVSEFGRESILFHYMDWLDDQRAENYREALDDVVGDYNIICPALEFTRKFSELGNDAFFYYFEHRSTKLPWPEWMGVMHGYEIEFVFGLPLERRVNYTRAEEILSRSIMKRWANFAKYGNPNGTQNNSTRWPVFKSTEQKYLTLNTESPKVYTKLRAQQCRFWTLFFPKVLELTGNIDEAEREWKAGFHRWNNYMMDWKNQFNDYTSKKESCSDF
Test: Competitive inhibition of equine serum BChE using butyrylthiocholine iodide as substrate preincubated for 20 mins followed by substrate addition measured every 1 min for 30 mins by Dixon plot method
pKi: −log10 of the molar value.
recorded.endpoint: pKi

Some molecules with known pKi results, for comparison:
INSERT INTO measurements (sample_smiles, experimental_target, recorded_endpoint, measurement) VALUES
  ('COC(=O)[C@]12CC[C@@H](/C(C)=N/OC(C)=O)[C@@H]1[C@H]1CC[C@@H]3[C@@]4(C)CC[C@H](OC(C)=O)C(C)(C)[C@@H]4CC[C@@]3(C)[C@]1(C)CC2', 'Cholinesterase (Equus caballus, UniProt P81908)', 'pKi', '< 4.82'),
  ('CCC(=O)O/N=C(\C)[C@@H]1CC[C@]2(C(=O)OC)CC[C@]3(C)[C@H](CC[C@@H]4[C@@]5(C)CC[C@H](OC(C)=O)C(C)(C)[C@@H]5CC[C@]43C)[C@@H]12', 'Cholinesterase (Equus caballus, UniProt P81908)', 'pKi', '< 4.52'),
  ('COC(=O)[C@]12CC[C@@H]([C@@H](C)NC(C)=O)[C@@H]1[C@H]1CC[C@@H]3[C@@]4(C)CC[C@H](OC(C)=O)C(C)(C)[C@@H]4CC[C@@]3(C)[C@]1(C)CC2', 'Cholinesterase (Equus caballus, UniProt P81908)', 'pKi', '< 5.40');

# map each molecule to its pKi
1. CC(=O)[C@@H]1CC[C@]2(C(=O)O)CC[C@]3(C)[C@H](CC[C@@H]4[C@@]5(C)CC[C@H](O)C(C)(C)[C@@H]5CC[C@]43C)[C@@H]12
2. COC(=O)[C@]12CC[C@@H]([C@H](C)NC(C)=O)[C@@H]1[C@H]1CC[C@@H]3[C@@]4(C)CC[C@H](OC(C)=O)C(C)(C)[C@@H]4CC[C@@]3(C)[C@]1(C)CC2
3. CC(=O)[C@@H]1CC[C@]2(C(=O)OCc3ccccc3)CC[C@]3(C)[C@H](CC[C@@H]4[C@@]5(C)CC[C@H](O)C(C)(C)[C@@H]5CC[C@]43C)[C@@H]12
4. CC(=O)[C@@H]1CC[C@]2(C(=O)OCc3ccccc3)CC[C@]3(C)[C@H](CC[C@@H]4[C@@]5(C)CCC(=O)C(C)(C)[C@@H]5CC[C@]43C)[C@@H]12

1: < 4.30; 2: < 4.40; 3: < 5.00; 4: < 5.00

---

For each record, write down the corresponding Ki.
Biological target: Cholinesterase (Equus caballus, UniProt P81908)
Test: Competitive inhibition of equine serum BChE using butyrylthiocholine iodide as substrate preincubated for 20 mins followed by substrate addition measured every 1 min for 30 mins by Dixon plot method
Numbers only, in µM.

Below, 2 molecules whose answers are already recorded.
INSERT INTO results (sample_smiles, measurement) VALUES
  ('CC(=O)O[C@H]1CC[C@]2(C)[C@H]3CC[C@@H]4[C@H]5[C@H](C(C)=O)CC[C@]5(C(=O)NCCN)CC[C@@]4(C)[C@]3(C)CC[C@H]2C1(C)C', 11.9),
  ('CC(=O)[C@@H]1CC[C@]2(C(=O)OCc3ccccc3)CC[C@]3(C)[C@H](CC[C@@H]4[C@@]5(C)CC[C@H](N)C(C)(C)[C@@H]5CC[C@]43C)[C@@H]12', 0.56);

Indicate the recorded Ki value for this molecule: "CC(=O)[C@@H]1CC[C@]2(N)CC[C@]3(C)[C@H](CC[C@@H]4[C@@]5(C)CC[C@H](O)C(C)(C)[C@@H]5CC[C@]43C)[C@@H]12"
6.39
